- Assay Remarks: Human HepG2 cell viability assay in 384 well format
- Assay type: toxicity, cell-based
- Design: dose 125 nL, time 70.5 hour; concentration not given beside the values
- Measurement Conditions: HepG2 cells, read-out: Inhibition
Field: cytotoxicity at 70.5 h. Provide a value for each of the compounds that follow.
Give the quantity in %, number only.

Query block: Quick one: cytotoxicity at 70.5 h for COC(=O)N(C)CCCC(=O)Nc1[nH]nc(-c2ccncc2)c1C ?
Result block: -2.11

Query block: Next compound up: CCc1cccc(NS(=O)(=O)c2cc(C)c(C(=O)O)s2)c1
Result block: 0.535

Query block: Next compound up: Cc1cnc2n(c1=O)C(CC(=O)NCc1cc(-c3cccs3)on1)CS2 (stereo unspecified)
Result block: 55.7

Query block: Next compound up: COc1ccccc1C1(CNCc2ccc([S+](C)[O-])cc2)CC1 (stereo unspecified)
Result block: -6.54

Query block: Next compound up: Cc1cc(CS(=O)(=O)C(C)C(=O)N(C)c2ccccc2)on1 (stereo unspecified)
Result block: -28.7

Query block: Next compound up: CC(C)N1c2sc(-c3ccsc3)nc2CC1C(=O)NC1CC1 (stereo unspecified)
Result block: -5.25

Query block: Next compound up: O=C(NCCCn1cccn1)N1CCCC1c1ccncc1 (stereo unspecified)
Result block: 6.98

Query block: Next compound up: CCOC(=O)C1CCN(C(=O)c2cc(Br)ccc2-n2cnnn2)CC1
Result block: -6.49

Query block: Next compound up: N#Cc1ccc(F)c(CNC(=O)NCCC(=O)NC2CCCC2)c1
Result block: -3.12

Query block: Next compound up: Cn1ncc(NC(=O)Cn2ccc(-c3ccc(F)cc3)n2)n1
Result block: 0.148

Query block: Next compound up: COc1ccc2nnc(CCCC(=O)NCCc3ccccc3)n2n1
Result block: -9.61

Query block: Next compound up: C=C(C)COc1cccc(CN(C)C(C)c2ccncn2)c1 (stereo unspecified)
Result block: -4.71

Query block: Next compound up: Cc1cc(NC(=O)NCc2ccncc2)ccc1OC(C)C
Result block: -3.47

Query block: Next compound up: O=C(c1cnccn1)N1C[C@@H]2OCC(=O)N(CC3CCCCC3)[C@@H]2C1
Result block: -0.096

Query block: Next compound up: O=C(O)c1cc(NS(=O)(=O)c2ccc(Br)s2)c(F)cc1F
Result block: 1.5

Query block: Next compound up: O=C(NCCCn1cccn1)C1CCC(=O)N(Cc2ccccc2F)C1 (stereo unspecified)
Result block: 4.27

Query block: Next compound up: COc1ccc(CC(=O)N2CCN(Cc3ccco3)C[C@H]2C)cc1OC
Result block: -5.07

Query block: Next compound up: COc1ccccc1OCC(=O)NS(=O)(=O)c1cccnc1
Result block: -8.19

Query block: Next compound up: CS(=O)(=O)N1CC(c2ncn3ccccc23)C1
Result block: -9.83

Query block: Next compound up: Cc1ccc(C(=O)N2CCO[C@H]3[C@@H](OCc4ccccn4)CC[C@@H]32)o1
Result block: -19.5

Query block: Next compound up: COc1cc(OC)c(CNC(=O)NCC(=O)N2CCCC2)c(OC)c1
Result block: -6.53

Query block: Next compound up: c1cnn(CC2CN(Cc3ccc(-n4ccnc4)cc3)CCO2)c1 (stereo unspecified)
Result block: 12.9

Query block: Next compound up: COc1cc(N2CC[C@@H](OC)[C@@H]2Cc2ccccc2)ncn1
Result block: -1.02

Query block: Next compound up: Cc1nc(CN2CCc3ncnc(C4CC4)c3CC2)cs1
Result block: -2.07

Query block: Next compound up: Cc1nc(C2CCCN(C(C)C)C2)sc1Br (stereo unspecified)
Result block: -4.14

Query block: Next compound up: c1cc(CNCc2ccc(-n3cncn3)nc2)cc(OC2CCCC2)c1
Result block: -6.11

Query block: Next compound up: NC(=O)CN1CC2(CCC1=O)CCN(Cc1ccc(F)cc1Cl)CC2
Result block: -1.9

Query block: Next compound up: Cc1nc(N)cc(C2CN(C(=O)c3ccn(C)n3)CCO2)n1 (stereo unspecified)
Result block: -11.7

Query block: Next compound up: CCc1ncc2c(n1)CN(c1nccc(C3CCCC3)n1)C2
Result block: -10.9

Query block: Next compound up: O=C1N(CC2CC2)C(c2cncs2)NC12CCCC2 (stereo unspecified)
Result block: -4.01

Query block: Next compound up: COc1ccc2oc(C(C)NC(=O)NCC(C)(C)C(N)=O)c(C)c2c1 (stereo unspecified)
Result block: 23.4

Query block: Next compound up: COc1cc(NC(=O)N(C)CC2CC2)ncn1
Result block: -7.89

Query block: Next compound up: CCOc1nnc(CN(Cc2ccccc2)CC(O)c2ccco2)s1 (stereo unspecified)
Result block: -10.6

Query block: Next compound up: CCc1nc(CN2CCCN(C(=O)C(C)n3cncn3)CC2)cs1 (stereo unspecified)
Result block: -8.34

Query block: Next compound up: CC(c1ccc(F)cc1F)N1CCN(CCC(=O)O)CC1 (stereo unspecified)
Result block: -6.34

Query block: Next compound up: O=C(NCCCNc1ccc(C(F)(F)F)cn1)c1ccc2c(c1)OCO2
Result block: -9.51

Query block: Next compound up: Cc1ccccc1C1(CNCc2cnc(N3CCOCC3)nc2)CC1
Result block: 5.8

Query block: Next compound up: O=c1c(CN2CCOCC2)coc2ccc(Cl)cc12
Result block: -8.39

Query block: Next compound up: Cc1n[nH]c(CN2CCN(Cc3ccccc3)[C@@H]3CS(=O)(=O)C[C@@H]32)n1
Result block: 0.0797

Query block: Next compound up: Cc1nn(-c2ccccc2)nc1C(=O)N1CCCC(n2cccn2)C1 (stereo unspecified)
Result block: -1.86

Query block: Next compound up: Cc1cc(C(=O)N2CC[C@@H](O)[C@@H]2Cc2ccccc2)no1
Result block: -11.3

---

- Assay Remarks: Human HepG2 cell viability assay in 384 well format
- Type: toxicity, cell-based
- Parameters: dose 125 nL, time 70.5 hour; concentration not given beside the values
- Measurement Conditions: HepG2 cells, read-out: Inhibition
Field: cytotoxicity at 70.5 h. Provide a value for each of the compounds that follow.
Give the quantity in %, number only.

Query block: Quick one: cytotoxicity at 70.5 h for CCN(CCO)C(=O)c1cc(Cn2c(C)nc3ccccc32)[nH]n1 ?
Result block: -9.25

Query block: Next compound up: CC(NC(=O)CCCc1ccc(Cl)cc1)c1nnn[nH]1 (centres undefined)
Result block: -11.1

Query block: Next compound up: Cn1cccc1-c1cc(C(=O)NCCc2nnc(N)s2)[nH]n1
Result block: 4.96

Query block: Next compound up: COCC1(C(=O)N[C@H]2CN(c3ccnc(C)c3)C[C@@H]2C2CC2)CCC1
Result block: -8.46

Query block: Next compound up: CCn1c(C2CCN(C(=O)c3cc(CC(C)C)on3)CC2)nn(C)c1=O
Result block: 6.02

Query block: Next compound up: O=S(=O)(N1CCCC1)N(Cc1ccccc1)CC1CCCO1 (centres undefined)
Result block: -7.82

Query block: Next compound up: CCC(C(=O)NC(C)(C)C)n1ccc2ncccc2c1=O (centres undefined)
Result block: -17.5

Query block: Next compound up: COc1ccc(F)cc1CSCC(=O)N(C)CCC#N
Result block: 0.901

Query block: Next compound up: CCc1noc(C(C)N(C)CC(=O)Nc2ccc(Cl)c(C(F)(F)F)c2)n1 (centres undefined)
Result block: -97

Query block: Next compound up: Cc1cccc(C)c1OCCNC(=O)NC(C)c1nncn1C (centres undefined)
Result block: 41.6

Query block: Next compound up: COCCN1CCN(C(=O)c2ccc(COC)o2)[C@H]2CS(=O)(=O)C[C@H]21
Result block: 11.2

Query block: Next compound up: Cc1ccc(CN2C[C@H](O)C[C@H]2c2nc(-c3ccc(F)cc3)no2)cc1
Result block: -7.37

Query block: Next compound up: CC(=O)Nc1ccc(CNC2CC(=O)N(Cc3cccc(F)c3)C2)cc1 (centres undefined)
Result block: -8.05

Query block: Next compound up: O=C(CCN1CCC(C(=O)c2cc(F)ccc2F)CC1)NC1CC1
Result block: -0.804

Query block: Next compound up: CN1CC(C(=O)NCCOc2ccc3c(c2)OCO3)CC1=O (centres undefined)
Result block: -1.1

Query block: Next compound up: CCS(=O)(=O)NCCNc1cc(-n2cccc2)ncn1
Result block: -0.787

Query block: Next compound up: Cc1nn(C)c(C)c1NC(=O)CNC(c1ccccc1)C1CCC1 (centres undefined)
Result block: -4.47

Query block: Next compound up: CC1CCN(CCNC(=O)c2scnc2Cl)CC1
Result block: 18.5

Query block: Next compound up: CCCC(O)CNc1cncc(Br)c1 (centres undefined)
Result block: -5.08

Query block: Next compound up: CC1(C)CN(C(=O)Nc2cc(C(F)(F)F)c[nH]c2=O)CCO1
Result block: -6.62

Query block: Next compound up: COc1ccccc1NC(=O)CC(C)NCc1scnc1C (centres undefined)
Result block: -4.53

Query block: Next compound up: CCn1c(C)nnc1CN(C)C1CCN(Cc2cnc(C)cn2)C1 (centres undefined)
Result block: -0.885

Query block: Next compound up: N#Cc1ccc(F)c(CN2CCNC(=O)C2c2cccs2)c1 (centres undefined)
Result block: 18

Query block: Next compound up: CN(C)CC(C)(C)CN1CCC(c2ccnc(-c3cccc(O)c3)c2)C1 (centres undefined)
Result block: -8.34

Query block: Next compound up: Cc1ncsc1CNc1cc(N2CCCC2CO)ncn1 (centres undefined)
Result block: 26.9

Query block: Next compound up: CCCn1nc(C2CCNCC2)n(Cc2ccccc2)c1=O
Result block: -7.28

Query block: Next compound up: Cc1cccc(C(=O)N2C[C@@H](OCc3cccnc3)[C@H]3OCCC[C@@H]32)n1
Result block: -1.75

Query block: Next compound up: CN(C)C(=O)COCC1CN(Cc2ccoc2)Cc2ncn(C)c21 (centres undefined)
Result block: -3.96

Query block: Next compound up: Cc1nc(COc2ccc(S(=O)(=O)N(C)C)cc2)sc1C
Result block: -24.1
